Values compiled from patent US8952024B2.

Tested on: goosegrass (Eleusine indica)
Assay: Test B pre-/postemergence plant response
Type: in vivo
Settings: Postemergence, 250 g ai/ha; scale 0 to 100 (0 no effect, 100 complete control); 13 to 15 days
compounds and their reported Plant response rating, Goosegrass
Quick one: just the number, no unit, thanks!

| COMPOUND | ENDPOINT_VALUE |
| --- | --- |
| COCCCn1c(-c2cccc(Br)c2)ncc(C(=O)C2=C(O)CCCC2=O)c1=O | 85 |
| Cc1ccc(Cl)cc1-n1c(-c2cccc(F)c2)ncc(C(=O)C2=C(O)CCCC2=O)c1=O | 100 |

Return reported Plant response rating, Goosegrass. Input compound: `CCCCn1c(-c2cccc(Cl)c2)ncc(C(=O)C2=C(O)CCCC2=O)c1=O`
95

Return reported Plant response rating, Goosegrass. Input compound: CCn1c(-c2ccccc2)ncc(C(=O)C2=C(O)C3CCC(C3)C2=O)c1=O (centres unmarked)
100

Return reported Plant response rating, Goosegrass. Input compound: CCCCn1c(-c2cccc(F)c2)ncc(C(=O)C2=C(O)C3CCC(C3)C2=O)c1=O (centres unmarked)
98

Return reported Plant response rating, Goosegrass. Input compound: `O=C1CCCC(O)=C1C(=O)c1cnc(-c2cccc(F)c2)n(C2CCCCC2)c1=O`
100

Return reported Plant response rating, Goosegrass. Input compound: `O=C1CCCC(O)=C1C(=O)c1cnc(-c2ccc(F)cc2)n(C2CCCCC2)c1=O`
100

Return reported Plant response rating, Goosegrass. Input compound: `CCc1ccccc1-n1c(-c2ccccc2)ncc(C(=O)C2=C(O)CCCC2=O)c1=O`
98

----------
System: barnyardgrass (Echinochloa crus-galli)
Experiment: Test B flooded paddy test
Format: in vivo
Conditions: Flood (flooded paddy test), 62 g ai/ha; scale of 0 to 100 where 0 is no effect and 100 is complete control; 13 to 15 days
molecules and their reported Plant response rating, Barnyardgrass
Quick one: just the number, no unit, thanks!

Given `CCc1ccccc1-n1c(-c2ccccc2)ncc(C(=O)C2=C(O)CCCC2=O)c1=O` , report its Plant response rating, Barnyardgrass on barnyardgrass (Echinochloa crus-galli).
0

Given `COCCn1c(-c2cccc(F)c2)ncc(C(=O)C2=C(O)CCCC2=O)c1=O` , report its Plant response rating, Barnyardgrass on barnyardgrass (Echinochloa crus-galli).
40

----------
System: Italian ryegrass (Lolium multiflorum)
Assay: Test B pre-/postemergence plant response
Type: in vivo
Conditions: Postemergence, 125 g ai/ha; scale 0 to 100 (0 no effect, 100 complete control)
compounds and their reported Plant response rating, Ryegrass, Italian
Quick one: just the number, no unit, thanks!

Study these solved cases before continuing.
| SMI | ENDPOINT_VALUE |
| --- | --- |
| COCCn1c(-c2cccc(F)c2)ncc(C(=O)C2=C(O)CCCC2=O)c1=O | 5 |
| COCCn1c(-c2cccc(C)c2)ncc(C(=O)C2=C(O)CCCC2=O)c1=O | 15 |

Return reported Plant response rating, Ryegrass, Italian. Input compound: `O=C1CCCC(O)=C1C(=O)c1cnc(-c2cc(F)cc(F)c2)n(C2CCCCC2)c1=O`
60

Return reported Plant response rating, Ryegrass, Italian. Input compound: `O=C1CCCC(O)=C1C(=O)c1cnc(-c2cccc(F)c2)n(C2CCCCC2)c1=O`
10

Return reported Plant response rating, Ryegrass, Italian. Input compound: `Cc1ccc(F)cc1-n1c(-c2cccc(Cl)c2)ncc(C(=O)C2=C(O)CCCC2=O)c1=O`
30

Return reported Plant response rating, Ryegrass, Italian. Input compound: `CCCn1c(-c2cccc(C(F)(F)F)c2)ncc(C(=O)C2=C(O)CCCC2=O)c1=O`
40

Return reported Plant response rating, Ryegrass, Italian. Input compound: `COCCCn1c(-c2cccc(Br)c2)ncc(C(=O)C2=C(O)CCCC2=O)c1=O`
0

----------
System: large crabgrass (Digitaria sanguinalis)
Experiment: Test B pre-/postemergence plant response
Type: in vivo
Conditions: Postemergence, 62 g ai/ha; scale 0 to 100 (0 no effect, 100 complete control)
RECORDED_ENDPOINT: Plant response rating, Crabgrass, Large
Quick one: just the number, no unit, thanks!

Return reported Plant response rating, Crabgrass, Large. Input molecule: COCCn1c(-c2ccsc2)ncc(C(=O)C2=C(O)C3CCC(C3)C2=O)c1=O (stereo not shown) [Compound 228]
98

Return reported Plant response rating, Crabgrass, Large. Input molecule: O=C(C1=C(O)C2CCC(C2)C1=O)c1cnc(-c2ccsc2)n(CC2CCCO2)c1=O (stereo not shown) [Compound 229]
90

Return reported Plant response rating, Crabgrass, Large. Input molecule: CCc1ccc(-n2c(-c3ccccc3)ncc(C(=O)C3=C(O)CCCC3=O)c2=O)cc1 [Compound 219]
95

Return reported Plant response rating, Crabgrass, Large. Input molecule: CCc1ccccc1-n1c(-c2ccccc2)ncc(C(=O)C2=C(O)CCCC2=O)c1=O [Compound 255]
85

----------
System: large crabgrass (Digitaria sanguinalis)
Test: Test A pre-/postemergence plant response
Assay type: in vivo
Settings: Postemergence, 500 g ai/ha; visual injury, 0 to 100 scale (0 no effect, 100 complete control), approx. ten days
# note: boundary value 90 maps to -1; Crabgrass, Large plant response rating below it maps to 1

As a guide, the following entries are already answered.
| MOLECULE | SYSTEM_NAME | ASSIGNED_CLASS |
| --- | --- | --- |
| COc1ccc(-n2c(-c3ccccc3)ncc(C(=O)C3=C(O)CCCC3=O)c2=O)c(OC)c1 [Compound 256] | large crabgrass (Digitaria sanguinalis) | 1 |
| COCCCn1c(-c2cccc(F)c2)ncc(C(=O)C2=C(O)C3CCC(C3)C2=O)c1=O (stereo not shown) [Compound 238] | large crabgrass (Digitaria sanguinalis) | -1 |
| O=C1CCCC(O)=C1C(=O)c1cnc(-c2ccccc2)n(C2CCCCCCCCCCC2)c1=O [Compound 165] | large crabgrass (Digitaria sanguinalis) | 1 |
| Cc1ccc(Cl)cc1-n1c(-c2cccc(F)c2)ncc(C(=O)C2=C(O)CCCC2=O)c1=O [Compound 184] | large crabgrass (Digitaria sanguinalis) | -1 |
| Cc1cccc(-c2ncc(C(=O)C3=C(O)CCCC3=O)c(=O)n2C2CCCCC2)c1 [Compound 185] | large crabgrass (Digitaria sanguinalis) | 1 |

Moving on to another molecule below.
I wonder whether O=C1CCCC(O)=C1C(=O)c1cnc(-c2ccccc2)n(C2CCSCC2)c1=O [Compound 164] has Crabgrass, Large plant response rating below 90. Can you tell?
-1

----------
Test system: wheat (Triticum aestivum)
Experiment: Test B pre-/postemergence plant response
Format: in vivo
Conditions: Postemergence, 250 g ai/ha; scale 0 to 100 (0 no effect, 100 complete control); 13 to 15 days
RECORDED_ENDPOINT: Plant response rating, Wheat

Study these solved cases before continuing.
| MOLECULE | SYSTEM_NAME | RECORDED_ENDPOINT | ENDPOINT_VALUE |
| --- | --- | --- | --- |
| Cc1ccc(F)cc1-n1c(-c2cccc(Cl)c2)ncc(C(=O)C2=C(O)CCCC2=O)c1=O [Compound 157] | wheat (Triticum aestivum) | Plant response rating, Wheat | 30 |
| COCCn1c(-c2cccc(F)c2)ncc(C(=O)C2=C(O)C3CCC(C3)C2=O)c1=O (centres unmarked) [Compound 235] | wheat (Triticum aestivum) | Plant response rating, Wheat | 80 |
| CCCCn1c(-c2cc(F)cc(F)c2)ncc(C(=O)C2=C(O)C3CCC(C3)C2=O)c1=O (centres unmarked) [Compound 245] | wheat (Triticum aestivum) | Plant response rating, Wheat | 98 |

Turning to the following molecule.
Return reported Plant response rating, Wheat. Input molecule: COCCCn1c(-c2cccc(Br)c2)ncc(C(=O)C2=C(O)CCCC2=O)c1=O [Compound 140]
15

----------
Test system: winter barley (Hordeum vulgare)
Test: Test B postemergence plant response
Format: in vivo
Conditions: Postemergence, 250 g ai/ha; scale 0 to 100 (0 no effect, 100 complete control)
RECORDED_ENDPOINT: Plant response rating, Barley

Study these solved cases before continuing.
| COMPOUND | SYSTEM_NAME | ENDPOINT_VALUE |
| --- | --- | --- |
| O=C1CCCC(O)=C1C(=O)c1cnc(-c2cccc(Cl)c2)n(-c2ccc(Cl)cc2)c1=O [Compound 64] | winter barley (Hordeum vulgare) | 35 |
| CCCc1ncc(C(=O)C2=C(O)CCCC2=O)c(=O)n1CC1CCCO1 (stereo not drawn) [Compound 74] | winter barley (Hordeum vulgare) | 0 |
| COCCCn1c(-c2cc(F)cc(F)c2)ncc(C(=O)C2=C(O)CCCC2=O)c1=O [Compound 120] | winter barley (Hordeum vulgare) | 5 |
| CCCCCn1c(-c2ccccc2)ncc(C(=O)C2=C(O)CCCC2=O)c1=O [Compound 89] | winter barley (Hordeum vulgare) | 20 |
| CCCCc1ncc(C(=O)C2=C(O)CCCC2=O)c(=O)n1-c1ccc(C)cc1 [Compound 67] | winter barley (Hordeum vulgare) | 30 |

Turning to the following compound.
Return reported Plant response rating, Barley. Input compound: CCCCn1c(-c2cc(F)cc(F)c2)ncc(C(=O)C2=C(O)CCCC2=O)c1=O [Compound 121]
10
